test: NCI Yeast Anticancer Drug Screen. Data for the cln2 rad14 strain (AID 165);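 also: 0% = growth equal to vehicle treated cultures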; details: S. cerevisiae cln2 rad14 strain, at 50.0 µM (retest, dose inferred, filed as 5.0)
Compounds without any hit were thinned out: in the full panel of roughly 79,000, 15% have a hit. Activity calls are given as the source filed them. Rule as the data show it: active = growth inhibition above about 70%; inactive = the rest.
# valid calls are yes (1) for active, no (0) for inactive; nothing else

Some solved cases for reference:
O=[N+]([O-])c1ccc(N2CCOCC2)c2c1no[n+]2[O-]: yes (1)
CC1=C[C@H]2O[C@H]3C[C@H]4OC(=O)/C=C\C=C\C(=O)OCC[C@@H](C)[C@H](O)C(=O)OC[C@@]2(CC1)[C@@]4(C)[C@]31CO1: yes (1)
CC(C)c1ccc(C(C)C)c(C(=O)CN2CCOCC2)c1: no (0)
C[C@@H](O)[C@H]1/C=C/C=C\C(=O)O[C@@H]2C[C@H]3O[C@@H]4[C@@H]5OC5(C)CCC4(COC(=O)[C@H]4O[C@]4(C)[C@@H](O)CO1)[C@]2(C)[C@]31CO1 (stereo partly drawn): yes (1)
C[n+]1c(/C=C/c2ccc(O)c3ccccc23)[se]c2ccccc21: no (0)

Hello, I am checking results. What call was entered for O=P(c1cccc(C(F)(F)F)c1)(c1cccc(C(F)(F)F)c1)c1cccc(C(F)(F)F)c1.O=P(c1cccc(C(F)(F)F)c1)(c1cccc(C(F)(F)F)c1)c1cccc(C(F)(F)F)c1.[Cl][Sn]([Cl])([Cl])[Cl] ? yes (1)

Next entry: C[C@]12C/C(=C/O)C(=O)C(O)=C1CC[C@@H]1C2CC[C@@]2(C)C1CC[C@@H]2O (stereo partly drawn) no (0)

Next entry: CCOc1c(Br)cc(N=Cc2ccc(N(CCCl)CCCl)c(OC)c2)cc1Br no (0)

Next entry: C[AsH](C)CC[AsH](C)C.C[AsH](C)CC[AsH](C)C.C[AsH](C)CC[AsH](C)C.[Ni] yes (1)

Next entry: Oc1c(Cl)c(Cl)cc(Cl)c1Cc1c(Cl)cc(Cl)c(Cl)c1[O][Pb]([c]1ccccc1)([c]1ccccc1)[c]1ccccc1 yes (1)

Next entry: Oc1c(Cl)cc(Cl)c2ccccc12.[Cu+2] no (0)

Next entry: O=C(O)C(CSC(c1ccccc1)c1ccccc1)NC(=O)C(c1ccccc1)c1ccccc1 (stereo not drawn) yes (1)

Next entry: C1OCC2[CH2][Hg][S][Hg][CH2]C1O2 yes (1)

Next entry: COC12C(COC(N)=O)C3=C(C(=O)C(C)=C(N)C3=O)N1CC1C2N1C (stereo not drawn) yes (1)

Next entry: COC(=O)C1ON(c2ccccc2)C2c3ccccc3-c3ccccc3C12 (stereo not drawn) no (0)

Next entry: COc1cc(OC)c(/C=C(\C)[N+](=O)[O-])cc1Br no (0)

Next entry: Cc1cc(N(CCCl)CCCl)ccc1CN1CCCN(Cc2ccc(N(CCCl)CCCl)cc2C)C1c1ccc(N(CCCl)CCCl)cc1 yes (1)

Next entry: CC[CH2][Pb]([CH2]CC)([CH2]CC)[O]C(C)=O yes (1)

Next entry: CC(=O)c1cc2c(cc1O)C(C)(C)CCC2(C)C no (0)

Next entry: CN1CCN(c2ccc3nc(-c4ccc5nc(-c6ccc(N(C)CCCl)cc6)[nH]c5c4)[nH]c3c2)CC1 yes (1)

Next entry: O=[N+]([O-])c1ccc2c3c(cccc13)CC2 no (0)
